- Target or test system: T1, mouse folate receptor alpha (mFRα), recombinant protein (mouse, UniProt P35846 25-232)
- T1 construct: Bought recombinant proteins (e.g. biotinylated, Acro Biosystems FO1-M82E9); also called mFOLR1; Ms FOLR1
- T1 sequence (P35846 25-232 limits assumed): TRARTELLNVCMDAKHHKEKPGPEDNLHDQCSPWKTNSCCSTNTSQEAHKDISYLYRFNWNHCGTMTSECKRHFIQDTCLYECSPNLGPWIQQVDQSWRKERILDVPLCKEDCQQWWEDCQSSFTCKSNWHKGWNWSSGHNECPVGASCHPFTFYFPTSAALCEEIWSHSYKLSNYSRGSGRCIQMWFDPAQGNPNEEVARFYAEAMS
- Experimental details: BLI tandem binning on mouse FRα; competitor (1st association) 2MFR32
Entries and their normalized additional binding in 2nd association values follow.
Attribute measured: normalized additional binding in 2nd association

[
  {
    "Binder": "VHH 2MFR32 (VHH, also called 2MF832) VHH: QVQLQESGGGLVQAGGSLRVSCAASGFPFSTVYMSWVRQAPGKGLEWVSGINSNGGVIDYADSVKGRFTISRDNANNTLYLQLNSLKPEDTALYFCAKGRAFVATMPSSLRGQGTQVTVSS",
    "Observed result": "0%"
  },
  {
    "Binder": "VHH 2HFO42 (family 3) (VHH, also called 2HF042; Nb42) VHH: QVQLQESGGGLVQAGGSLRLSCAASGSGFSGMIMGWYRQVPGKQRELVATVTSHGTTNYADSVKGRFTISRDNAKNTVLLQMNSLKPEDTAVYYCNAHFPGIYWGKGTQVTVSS",
    "Observed result": "41%"
  },
  {
    "Binder": "VHH 3MFR60 (family 10) (VHH) VHH: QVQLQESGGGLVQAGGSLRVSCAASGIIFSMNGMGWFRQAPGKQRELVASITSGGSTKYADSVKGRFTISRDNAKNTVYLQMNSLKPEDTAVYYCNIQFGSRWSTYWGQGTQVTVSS",
    "Observed result": "75%"
  },
  {
    "Binder": "VHH 2HFO19 (family 1) (VHH, also called Nb19) VHH: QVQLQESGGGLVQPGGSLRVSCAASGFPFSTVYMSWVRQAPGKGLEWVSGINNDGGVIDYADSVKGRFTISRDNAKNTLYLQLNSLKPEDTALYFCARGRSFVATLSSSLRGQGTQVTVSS",
    "Observed result": "100%"
  }
]
